Known Soybean plant response rating of a selection of compounds
- Test system: soybean
- Experiment summary: Test B pre/postemergence soybean
- Type: in vivo, Glycine max
- Reported conditions: Rate 500 g/ha, Preemergence; scale 0 to 10 (0 no effect, 10 complete control)
- Description: […] At the same time, these crop and weed species were also treated with postemergence applications of test chemicals formulated in the same manner. […] Treated plants and controls were maintained in a greenhouse for twelve to sixteen days, after which all species were compared to controls and visually evaluated. […]
Measure: Soybean plant response rating

[
  {
    "Compound": "CC(C)N(C(=O)n1oc(=O)n(C(C)C2=NOCC2)c1=O)c1ccc(F)cc1F (racemic) [Compound 730]",
    "Measure": "Soybean plant response rating",
    "Result": 3
  },
  {
    "Compound": "COC(=O)N(C)CCn1c(=O)on(C(=O)N(c2ccccc2)C(C)C)c1=O [Compound 775]",
    "Measure": "Soybean plant response rating",
    "Result": 1
  },
  {
    "Compound": "CC(C)N(C(=O)n1oc(=O)n(CC(F)F)c1=O)c1ccccc1 [Compound 746]",
    "Measure": "Soybean plant response rating",
    "Result": 5
  },
  {
    "Compound": "CC(C)N(C(=O)n1oc(=O)n(C(C)C2CC2)c1=O)c1ccc(F)cc1F (stereo not shown) [Compound 720]",
    "Measure": "Soybean plant response rating",
    "Result": 0
  }
]
